Assay: sensitizers of A549 cells to miR-34 induction, primary screen, imaging, A549 dox-inducible miR-34, nuclei and caspase counts (AID 1347080); note: test concentration not given here
Details: A549 miR-34 inducible, Hoechst nuclei count, 48 h; measured here: total cells without miR-34 induction
cell count values for the compounds below.
Recorded endpoint: cell count

{"Compound": "Nc1ncnc2nc(-c3ccc(N4CCOCC4)nc3)cc(-c3cccc(Br)c3)c12", "Test value": 7640}
{"Compound": "CC(O)CC(C)(C)O (configuration not stated)", "Test value": 9590}
{"Compound": "CC12CCC(=O)C=C1CCC1C2CCC2(C)C1CCC2(O)C(=O)CO (configuration not stated)", "Test value": 5920}
{"Compound": "C[C@H]1O[C@@H](O[C@H]2[C@@H](O)C[C@H](O[C@H]3[C@@H](O)C[C@H](O[C@H]4CC[C@]5(C)C6CC[C@]7(C)[C@@H](C8=CC(=O)OC8)CC[C@]7(O)C6CC[C@@H]5C4)O[C@@H]3C)O[C@@H]2C)C[C@H](O)[C@@H]1O (some centres not stated)", "Test value": 450}
{"Compound": "O=C(OC[C@H]1O[C@H](OC(=O)c2cc(O)c(O)c(OC(=O)c3cc(O)c(O)c(O)c3)c2)[C@H](OC(=O)c2cc(O)c(O)c(OC(=O)c3cc(O)c(O)c(O)c3)c2)[C@@H](OC(=O)c2cc(O)c(O)c(OC(=O)c3cc(O)c(O)c(O)c3)c2)[C@@H]1OC(=O)c1cc(O)c(O)c(OC(=O)c2cc(O)c(O)c(O)c2)c1)c1cc(O)c(O)c(OC(=O)c2cc(O)c(O)c(O)c2)c1", "Test value": 7070}
{"Compound": "CC1=C(/C=C/C(C)=C/C=C/C(C)=C/C=C/C=C(C)/C=C/C=C(C)/C=C/C2=C(C)C(=O)CCC2(C)C)C(C)(C)CCC1=O", "Test value": 11200}
{"Compound": "CCCC(=O)O[C@]1(C(=O)CO)CCC2[C@@H]3CCC4=CC(=O)CC[C@]4(C)C3[C@@H](O)C[C@@]21C (some centres not stated)", "Test value": 7980}
